- MEASURED_TARGET: Dihydroorotate dehydrogenase (quinone), mitochondrial (Homo sapiens, UniProt Q02127)
- Sequence (Q02127 whole entry, the tested form may be a part): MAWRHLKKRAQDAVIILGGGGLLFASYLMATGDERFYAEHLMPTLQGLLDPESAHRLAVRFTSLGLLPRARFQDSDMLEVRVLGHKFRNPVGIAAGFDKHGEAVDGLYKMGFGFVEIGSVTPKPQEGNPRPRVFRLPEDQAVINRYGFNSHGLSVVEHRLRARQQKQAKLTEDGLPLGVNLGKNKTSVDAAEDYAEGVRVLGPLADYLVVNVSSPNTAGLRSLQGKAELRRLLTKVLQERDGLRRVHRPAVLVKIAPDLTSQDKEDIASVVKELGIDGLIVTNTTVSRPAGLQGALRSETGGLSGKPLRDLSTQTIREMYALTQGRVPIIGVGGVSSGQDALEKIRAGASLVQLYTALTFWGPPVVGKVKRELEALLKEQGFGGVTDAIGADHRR
- ASSAY_METHOD_TEXT: Inhibition of C-terminal His6-tagged recombinant human DHODH (29 to 395 residues) N-terminally truncated soluble domain extracted from Escherichia coli phage resistant BL21-DE3 using CoQD/DHA/DCIP as substrates
REPORTED_METRIC: IC50

Query string: Provide IC50, system Dihydroorotate dehydrogenase (quinone), mitochondrial (Homo sapiens, UniProt Q02127), entry Cn1nc2c(=O)n(C3CC3)ccc2c1[C@](O)(c1ccc(C(F)(F)F)c(C#N)c1)C1CC1
Result string: > 30 µM

Query string: Provide IC50, system Dihydroorotate dehydrogenase (quinone), mitochondrial (Homo sapiens, UniProt Q02127), entry CCn1cc(Cl)c2c(Cc3ccc(N4CCOCC4)nc3)n(C)nc2c1=O
Result string: > 100 µM

Query string: Provide IC50, system Dihydroorotate dehydrogenase (quinone), mitochondrial (Homo sapiens, UniProt Q02127), entry Cn1nc2c(=O)n(C3CC3)cnc2c1[C@](O)(c1ccc(C(F)(F)F)c(C#N)c1)C(F)(F)F
Result string: 18 µM
